study.system: human recombinant M2 (Homo sapiens)
Sequence (P08172 whole entry): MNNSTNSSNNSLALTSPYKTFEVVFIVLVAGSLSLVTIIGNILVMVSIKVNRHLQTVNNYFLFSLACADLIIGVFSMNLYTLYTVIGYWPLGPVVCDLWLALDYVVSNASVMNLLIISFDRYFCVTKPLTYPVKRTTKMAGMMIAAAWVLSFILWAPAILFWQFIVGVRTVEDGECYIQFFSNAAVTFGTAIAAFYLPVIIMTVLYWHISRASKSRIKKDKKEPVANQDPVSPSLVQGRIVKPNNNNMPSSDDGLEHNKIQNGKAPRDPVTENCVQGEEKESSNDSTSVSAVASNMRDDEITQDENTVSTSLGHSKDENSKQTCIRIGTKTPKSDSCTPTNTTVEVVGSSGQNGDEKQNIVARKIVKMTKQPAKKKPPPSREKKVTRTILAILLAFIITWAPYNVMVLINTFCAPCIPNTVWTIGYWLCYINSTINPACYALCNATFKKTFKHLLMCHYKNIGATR
measurement.protocol: Binding affinity at Muscarinic M2 receptor
test.parameters: read-out: Receptor Affinity (pKi) Muscarinic M2 (converted)
endpoint.name: Ki

response.value for CN(C)CCO/N=C(/C=C/c1ccc(O)cc1)c1ccccc1F [SR46349B, reference compound] (field: Ki) = > 1000 nM

# molecule N=C(N)NCC1CCCc2cc(S(=O)(=O)c3ccccc3)ccc21 (stereo not drawn) [Compound 52] ; its Ki = > 1000 nM

Field Ki (entry O=C1NCc2c(N3CCNCC3)cccc2N1Cc1cccc(F)c1 [Compound 18] ) reads > 1000 nM

Memo: CN1CCN(c2cccc3c(S(=O)(=O)c4ccccc4)c[nH]c23)CC1 [Compound 32] , reported Ki: > 316 nM

Looking up O=C1COc2c(N3CCNCC3)cccc2N1Cc1ccccc1 [Compound 3] , I see its Ki listed as > 1000 nM

Record summary for O=c1[nH]c2c(N3CCNCC3)cccc2n1Cc1ccccc1 [Compound 64] : reported Ki = > 316 nM

----------
study.system: human 5-HT6 (Homo sapiens, UniProt P50406)
Construct: expressed in transfected cells; host or cells: HEK-293 (HEK293-h5-HT6)
Sequence (P50406 whole entry): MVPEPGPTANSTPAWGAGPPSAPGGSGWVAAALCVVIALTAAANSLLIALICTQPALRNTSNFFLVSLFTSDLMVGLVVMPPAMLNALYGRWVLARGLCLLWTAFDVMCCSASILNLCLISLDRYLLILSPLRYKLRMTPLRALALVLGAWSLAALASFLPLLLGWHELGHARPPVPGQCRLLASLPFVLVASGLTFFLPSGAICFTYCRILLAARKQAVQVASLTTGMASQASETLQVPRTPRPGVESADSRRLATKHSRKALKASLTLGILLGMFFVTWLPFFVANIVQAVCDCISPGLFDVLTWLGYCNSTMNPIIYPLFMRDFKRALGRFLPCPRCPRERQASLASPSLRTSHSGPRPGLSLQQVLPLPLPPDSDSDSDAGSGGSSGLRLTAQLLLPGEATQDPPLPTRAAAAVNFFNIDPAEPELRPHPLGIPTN
measurement.protocol: Competition binding with [3H]-LSD at membranes of HEK-293 cells expressing human 5-HT6
endpoint.name: Ki (nM)
Kindly provide the numeric value in nM only, without the unit symbol.

Measured Ki of O=c1[nH]c2c(N3CCNCC3)cccc2n1Cc1ccccc1 [Compound 64] : 0.251

// Ki value for O=C1COc2c(N3CCNCC3)cccc2N1Cc1ccccc1 [Compound 3] : 0.158

Given item O=C1NCc2c(N3CCNCC3)cccc2N1Cc1cccc(F)c1 [Compound 18] , the value recorded as its Ki is 0.631

----------
study.system: human recombinant 5-HT2A (Homo sapiens, UniProt P28223)
Sequence (P28223 whole entry): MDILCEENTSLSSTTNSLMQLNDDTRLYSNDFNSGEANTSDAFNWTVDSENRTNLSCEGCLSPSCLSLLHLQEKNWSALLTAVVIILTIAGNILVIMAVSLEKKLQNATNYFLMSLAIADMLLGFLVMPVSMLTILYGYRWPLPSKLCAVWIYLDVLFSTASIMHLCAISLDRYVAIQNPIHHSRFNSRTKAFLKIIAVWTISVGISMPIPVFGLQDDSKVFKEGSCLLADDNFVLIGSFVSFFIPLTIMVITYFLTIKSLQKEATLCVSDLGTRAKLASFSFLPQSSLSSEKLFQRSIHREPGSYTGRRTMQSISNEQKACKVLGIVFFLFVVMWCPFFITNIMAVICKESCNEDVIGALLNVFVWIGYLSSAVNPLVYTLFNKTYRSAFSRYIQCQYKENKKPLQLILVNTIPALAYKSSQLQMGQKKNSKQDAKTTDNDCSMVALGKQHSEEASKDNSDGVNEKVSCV
measurement.protocol: Receptor affinity at 5-HT2A (Table 1; only a FLIPR calcium method is described)
Format: binding
test.parameters: read-out: Receptor Affinity (pKi) 5-HT2A (converted)
So I've got a bunch of compounds here, and I need their Ki values.
Please respond with the number in nM and leave the unit unwritten.

Notebook: CN(C)CCO/N=C(/C=C/c1ccc(O)cc1)c1ccccc1F [SR46349B, reference compound] , Ki read as 1

Input `O=C1COc2c(N3CCNCC3)cccc2N1Cc1ccccc1` . Output Ki: 1.26

Consider N=C(N)NCC1CCCc2cc(S(=O)(=O)c3ccccc3)ccc21 (stereo not drawn) . Its measured Ki is 794

`O=C1NCc2c(N3CCNCC3)cccc2N1Cc1cccc(F)c1` has a reported Ki of 2

Entry `O=c1[nH]c2c(N3CCNCC3)cccc2n1Cc1ccccc1` ; Ki = 25.1

// Ki lookup, compound = `CN1CCN(c2cccc3c(S(=O)(=O)c4ccccc4)c[nH]c23)CC1` , result: 79.4

Taken from patent US7713954B2.
